Test system: β-galactosidase in CMV-LacZ C2C12 myoblasts
MEASUREMENT DESCRIPTION: CMV-LacZ secondary screen in C2C12 myoblasts (β-Gal stabilizing assay)
Format: cell-based, mouse
MEASUREMENT PARAMETERS: 10 uM; CMV-LacZ C2C12 myoblasts
Measured CMV-LACZ in Myoblasts (β-galactosidase activity relative to DMSO) by item
QUANTITY MEASURED: CMV-LACZ in Myoblasts (β-galactosidase activity relative to DMSO)

{"MOLECULE": "COc1cc(C=O)ccc1OCC(=O)Nc1ccc2c(c1)OCO2 [MLS001123876-01]", "VALUE": 0.9871}
{"MOLECULE": "COc1ccccc1CC(=O)Nc1cc(S(=O)(=O)N2CCOCC2)ccc1N1CCOCC1 [MLS002170630-01]", "VALUE": 0.9628}
{"MOLECULE": "COc1ccc(N=Nc2ccc(N)nc2N)cc1 [MLS000736846-01]", "VALUE": 1.1101}
{"MOLECULE": "COC(=O)c1cc(S(=O)(=O)NCC2CCN(Cc3ccc(Cl)cc3)CC2)cn1C [MLS001095033-01]", "VALUE": 1.0269}
{"MOLECULE": "Cc1cccc(C)c1NCC(=O)N1CCN(Cc2ccccc2)CC1.Cl [MLS001176153-01]", "VALUE": 0.9140}
{"MOLECULE": "Nc1cccc(/C=C/C(=O)O)c1 [MLS000777780-01]", "VALUE": 1.0126}
{"MOLECULE": "Cl.O=C1C2CCCN2C(=O)N1CCCN1CCN(c2cccc(Br)c2)CC1 (centres unmarked) [MLS001180929-01]", "VALUE": 0.8753}
{"MOLECULE": "Cc1cccc(Sc2nc(-c3ccccc3)ccc2C#N)c1 [MLS000325736-01]", "VALUE": 1.0696}
{"MOLECULE": "Cc1[nH]c2ccc(F)cc2c1CCN(Cc1ccco1)C(=S)NC(C)(C)C [MLS000419286-01]", "VALUE": 0.8022}
{"MOLECULE": "CC(C)(C)c1csc(NC(=O)c2cccnc2)n1 [MLS001164432-01]", "VALUE": 1.3183}
{"MOLECULE": "COc1ccc(Cl)cc1NC(=O)c1cc(-c2cc(C)ccc2O)n[nH]1 [MLS000779126-01]", "VALUE": 0.7610}

* * *

Tested on: β-galactosidase in CMV-LacZ C2C12 myotubes
MEASUREMENT DESCRIPTION: CMV-LacZ secondary screen in C2C12 myotubes (β-Gal stabilizing assay)
Assay type: cell-based, mouse
MEASUREMENT PARAMETERS: 5 uM; C2C12 CMV-LacZ myotubes; fold relative to DMSO
QUANTITY MEASURED: CMV-LACZ in Myotubes, signal relative to DMSO

{"MOLECULE": "CN(C)CCNc1ncnc2sc(-c3ccccc3)cc12", "VALUE": 1.084}
{"MOLECULE": "CCOc1ccc(Br)cc1S(=O)(=O)Nc1ccc(C(=O)Nc2ccccc2OC)cc1", "VALUE": 1.0198}
{"MOLECULE": "O=C(COc1cc2oc(=O)c3c(c2cc1Cl)CCCC3)NCC1CCC(C(=O)O)CC1 (centres unmarked)", "VALUE": 0.703}
{"MOLECULE": "CC1CCN(S(=O)(=O)c2ccc(S(=O)(=O)N3CCCC3)cc2)CC1", "VALUE": 0.936}
{"MOLECULE": "CCOC(=O)c1cc(C(=O)OCC)c(=O)[nH]c1SCc1ccccc1", "VALUE": 0.9839}
